These data points were gathered from PubChem BioAssay AID1963449.

# System: 596521-263-R-J1-PDC complex spheroid growth;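 note: spheroids exposed to compounds for 7 days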
# ASSAY_PROCEDURE: Anticancer human tumor 596521-263-R-J1-PDC patient-derived soft tissue sarcoma cell line growth inhibition [Asc]
# TEST_SETTINGS: second compound 0.00949 µM; first compound 1 µM; stronger effect = lower value
Each record is given MET if its reported viability, T/C is strictly below 90%. Records at or above 90% are given NOT MET.

In plain terms, does CNC(C)C(=O)NC1CN(S(=O)(=O)c2cccc(S(=O)(=O)N3CCC4CCC(C(=O)NC(c5ccccc5)c5ccccc5)N4C(=O)C(NC(=O)C(C)NC)C3)c2)CCC2CCC(C(=O)NC(c3ccccc3)c3ccccc3)N2C1=O (stereo not drawn) + CCN1C(C(=O)NC23CCC(C(=O)O)(CC2)CC3)C(c2cccc(Cl)c2F)C2(C(=O)Nc3cc(Cl)ccc32)C12CCCCC2 come in under 90% for viability, T/C?
MET

In plain terms, does COc1c(OCCCN2CCOCC2)ccc2c3n(c(=NC(=O)c4cnc(N)nc4)nc12)CCN3 + CCN1C(C(=O)NC23CCC(C(=O)O)(CC2)CC3)C(c2cccc(Cl)c2F)C2(C(=O)Nc3cc(Cl)ccc32)C12CCCCC2 come in under 90% for viability, T/C?
MET

In plain terms, does C=CC(=O)N1CCN(c2nc(=O)n(-c3c(C)ccnc3C(C)C)c3nc(-c4c(O)cccc4F)c(F)cc23)C(C)C1 (stereo not drawn) + CCN1C(C(=O)NC23CCC(C(=O)O)(CC2)CC3)C(c2cccc(Cl)c2F)C2(C(=O)Nc3cc(Cl)ccc32)C12CCCCC2 come in under 90% for viability, T/C?
NOT MET

In plain terms, does CCN1CCN(Cc2ccc(Nc3ncc(F)c(-c4cc(F)c5nc(C)n(C(C)C)c5c4)n3)nc2)CC1 + CCN1C(C(=O)NC23CCC(C(=O)O)(CC2)CC3)C(c2cccc(Cl)c2F)C2(C(=O)Nc3cc(Cl)ccc32)C12CCCCC2 come in under 90% for viability, T/C?
MET

In plain terms, does C#Cc1c(F)ccc2cc(O)cc(-c3ncc4c(N5CC6CCC(C5)N6)nc(OCC56CCCN5CC(F)C6)nc4c3F)c12 (stereo not drawn) + CCN1C(C(=O)NC23CCC(C(=O)O)(CC2)CC3)C(c2cccc(Cl)c2F)C2(C(=O)Nc3cc(Cl)ccc32)C12CCCCC2 come in under 90% for viability, T/C?
NOT MET

In plain terms, does O=C(c1cc(Cc2n[nH]c(=O)c3ccccc23)ccc1F)N1CCN(C(=O)C2CC2)CC1 + CCN1C(C(=O)NC23CCC(C(=O)O)(CC2)CC3)C(c2cccc(Cl)c2F)C2(C(=O)Nc3cc(Cl)ccc32)C12CCCCC2 come in under 90% for viability, T/C?
NOT MET

More entries:
In plain terms, does O=C(c1ccc(F)c(F)c1Nc1ccc(I)cc1F)N1CC(O)([C@@H]2CCCCN2)C1 + CCN1C(C(=O)NC23CCC(C(=O)O)(CC2)CC3)C(c2cccc(Cl)c2F)C2(C(=O)Nc3cc(Cl)ccc32)C12CCCCC2 come in under 90% for viability, T/C?
MET

In plain terms, does C=C(F)C(=O)N1CCN(c2nc(OCC3CCCN3C)nc3c2CCN(c2cccc4cccc(Cl)c24)C3)CC1CC#N (stereo not drawn) + CCN1C(C(=O)NC23CCC(C(=O)O)(CC2)CC3)C(c2cccc(Cl)c2F)C2(C(=O)Nc3cc(Cl)ccc32)C12CCCCC2 come in under 90% for viability, T/C?
NOT MET
